The measured values listed here are drawn from the supplement of paper PMC10567573.

B1: GLTSCR2 (parent)
chain: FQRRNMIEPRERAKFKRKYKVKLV

- Variants of: B1
- protocol_notes: protein stability index of a GFP-peptide fusion (GPS, HEK-293T) (PSI 1-6); higher = more stable;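 note: lentivirally expressed fusions sorted by FACS into six bins by GFP to DsRed ratio, PSI derived from sequencing read proportions per bin multiplied by bin number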
- condition: c terminus: a fixed tail appended
Listing: protein stability index of selected variants
A bare number is all that is needed in reply.

Solved cases (5 shown):
E11N
2.6
K18R
2.32
R17W
2.1
K20W
2.04
K14I
2.5

Proceed to the following item.
Request: # lookup: protein stability index of A13V
Result: 3.38
